src = patent US9435795B2

Biological target: horseradish peroxidase (HRP) (Armoracia rusticana)
Construct: purchased VMSI (Ventana Medical Systems, Inc.) 760-500: 253-4290, 253-4292 and 253-4293
Sequence (P00433 31-338): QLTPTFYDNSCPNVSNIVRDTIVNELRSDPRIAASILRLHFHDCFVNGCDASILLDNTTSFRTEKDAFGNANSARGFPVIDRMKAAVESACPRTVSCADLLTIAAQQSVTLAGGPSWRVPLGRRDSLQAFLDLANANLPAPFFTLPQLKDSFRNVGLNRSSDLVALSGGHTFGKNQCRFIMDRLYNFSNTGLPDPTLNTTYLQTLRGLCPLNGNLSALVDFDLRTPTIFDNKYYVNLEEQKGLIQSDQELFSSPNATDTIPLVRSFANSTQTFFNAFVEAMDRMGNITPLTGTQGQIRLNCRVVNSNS
Assay: Plate assay: kinetic screening of enhancers of HRP-mediated DAB oxidation (ultraView Detection Kit, OD 455 nm)
Type: biochemical
Details: enhancer 10 mM; no enhancer 18.50
Readout Label: Vmax (apparent, HRP-oxidized DAB) (mOD/min)

// below: answered compounds
INSERT INTO results (compound, endpoint_unit, result_number) VALUES
  ('O=c1cc[nH]c(=O)[nH]1', 'mOD/min', 52.00),
  ('c1cncnc1', 'mOD/min', 104.00);

[1] c1c[nH]cn1
[2] Oc1ccccn1 [2-Hydroxypyridine]
Exercise: # query: argmin of Vmax (apparent, HRP-oxidized DAB) over 1 and 2 Indicate your choice by writing its label.
Key: 1
(1: 28.80 mOD/min, 2: 47.67 mOD/min)
